Where these numbers come from: patent US9915650B2

- tested-system: anti-cAMP antibody
- assay-notes: cAMP/cGMP standard curves: displacement of tracer from anti-cAMP antibody, fluorescence readout
- Assay type: binding, mouse
- stated-conditions: 20 nM MR121-2-AHA-cAMP, 40 nM anti-cAMP antibody, without cells (FIG. 8); read-out: IC50, standard curve without cells
measured-endpoint: IC50 (µM)
Give just the numeric value; µM need not be written.

Request: # query: IC50 of entry Nc1ncnc2c1ncn2[C@@H]1O[C@@H]2COP(=O)(O)O[C@H]2[C@H]1O [cAMP, cyclic adenosine monophosphate]
Result: 0.109

###

- assay-notes: Quenching of free MR121 fluorescence by cyclic nucleotides and cAMP derivates (Stern-Volmer plot)
- Format: binding
- stated-conditions: 20 nM MR121 in PBS, quencher 0-12.8 mM, 30 min RT
measured-endpoint: quenching of MR121 (decrease of fluorescence intensity, fluorescence lifetime)

>>> result("NCCCCCCNc1ncnc2c1ncn2[C@@H]1O[C@@H]2COP(=O)(O)O[C@H]2[C@H]1O")
"no quenching at all"
>>> result("Nc1ncnc2c1ncn2[C@@H]1O[C@@H]2COP(=O)(O)O[C@H]2[C@H]1O [cAMP, cyclic adenosine monophosphate]")
"no quenching at all"

###

- tested-system: anti-cAMP antibody
- assay-notes: cAMP/cGMP standard curves: displacement of tracer from anti-cAMP antibody, fluorescence readout
- Assay type: binding, mouse
- stated-conditions: 20 nM MR121-2-AHA-cAMP tracer, 40 nM antibody, without cells (FIG. 14); read-out: IC50, comparison of standard curves for cAMP and cGMP
measured-endpoint: pIC50
pIC50 is a log-scale quantity: -log10 of the concentration expressed in molar.

>>> recorded_number("Nc1ncnc2c1ncn2[C@@H]1O[C@@H]2COP(=O)(O)O[C@H]2[C@H]1O [cAMP, cyclic adenosine monophosphate]")
6.87

Field: next molecule
Request: Data request, read-out pIC50, for Nc1nc2c(ncn2[C@@H]2O[C@@H]3COP(=O)(O)O[C@H]3[C@H]2O)c(=O)[nH]1 [cGMP, cyclic GMP]
Result: 6.41
